# Tested on: HeLa nuclear HDACs
# PROCEDURE_TEXT: HDAC inhibition assay, HeLa nuclear extract (mixture of class I HDACs 1, 2, and 3)
# CONDITIONS_USED: read-out: IC50 HeLa nuclear HDACs, Boc-Lys-(AMC) substrate
pIC50: −log10 of the molar value.
REPORTED_METRIC: pIC50

Recorded results for 4 molecules are shown here.
MOLECULE	TARGET	pIC50
O=C(NO)c1ccc(CN2c3ccccc3Sc3ccc(C(F)(F)F)cc32)cc1-c1ccccc1	HeLa nuclear HDACs	< 4.40
O=C(NO)c1ccc(CN2c3ccccc3Sc3ccc(Cl)cc32)cc1-c1ccccc1	HeLa nuclear HDACs	< 4.40
COc1ccc2c(c1)N(Cc1ccc(C(=O)NO)c(-c3ccccc3)c1)c1ccccc1S2	HeLa nuclear HDACs	< 4.40
NC(=O)c1ccc2c(c1)N(Cc1ccc(C(=O)NO)c(-c3ccccc3)c1)c1ccccc1S2	HeLa nuclear HDACs	< 4.40

Proceed to the following item.
Please report the recorded pIC50 for NC(=O)c1ccc2c(c1)N(Cc1ccc(C(=O)NO)cc1)c1ccccc1S2 [LH4f, reference compound] .
7.00
